Test Summary: AUC in human at 1 g, iv administered every 12 hrs
Assay type: ADME, organism-based
Condition Parameters: plasma
Measurement Kind: AUC at 12 h (µg·h/mL)
Numbers only here, please. The scale is µg·h/mL.

Consider the molecule shown here: `CN[C@H](CC(C)C)C(=O)N[C@H]1C(=O)N[C@@H](CC(N)=O)C(=O)N[C@H]2C(=O)N[C@H]3C(=O)N[C@H](C(=O)N[C@H](C(=O)O)c4cc(O)cc(O)c4-c4cc3ccc4O)[C@H](O)c3ccc(c(Cl)c3)Oc3cc2cc(c3O[C@@H]2O[C@H](CO)[C@@H](O)[C@H](O)[C@H]2O[C@H]2C[C@](C)(N)[C@H](O)[C@H](C)O2)Oc2ccc(cc2Cl)[C@H]1O` What is its recorded AUC at 12 h?
359
